Molecular target: Sodium channel protein type 10 subunit alpha (Mus musculus)
Sequence (Q6QIY3 whole entry): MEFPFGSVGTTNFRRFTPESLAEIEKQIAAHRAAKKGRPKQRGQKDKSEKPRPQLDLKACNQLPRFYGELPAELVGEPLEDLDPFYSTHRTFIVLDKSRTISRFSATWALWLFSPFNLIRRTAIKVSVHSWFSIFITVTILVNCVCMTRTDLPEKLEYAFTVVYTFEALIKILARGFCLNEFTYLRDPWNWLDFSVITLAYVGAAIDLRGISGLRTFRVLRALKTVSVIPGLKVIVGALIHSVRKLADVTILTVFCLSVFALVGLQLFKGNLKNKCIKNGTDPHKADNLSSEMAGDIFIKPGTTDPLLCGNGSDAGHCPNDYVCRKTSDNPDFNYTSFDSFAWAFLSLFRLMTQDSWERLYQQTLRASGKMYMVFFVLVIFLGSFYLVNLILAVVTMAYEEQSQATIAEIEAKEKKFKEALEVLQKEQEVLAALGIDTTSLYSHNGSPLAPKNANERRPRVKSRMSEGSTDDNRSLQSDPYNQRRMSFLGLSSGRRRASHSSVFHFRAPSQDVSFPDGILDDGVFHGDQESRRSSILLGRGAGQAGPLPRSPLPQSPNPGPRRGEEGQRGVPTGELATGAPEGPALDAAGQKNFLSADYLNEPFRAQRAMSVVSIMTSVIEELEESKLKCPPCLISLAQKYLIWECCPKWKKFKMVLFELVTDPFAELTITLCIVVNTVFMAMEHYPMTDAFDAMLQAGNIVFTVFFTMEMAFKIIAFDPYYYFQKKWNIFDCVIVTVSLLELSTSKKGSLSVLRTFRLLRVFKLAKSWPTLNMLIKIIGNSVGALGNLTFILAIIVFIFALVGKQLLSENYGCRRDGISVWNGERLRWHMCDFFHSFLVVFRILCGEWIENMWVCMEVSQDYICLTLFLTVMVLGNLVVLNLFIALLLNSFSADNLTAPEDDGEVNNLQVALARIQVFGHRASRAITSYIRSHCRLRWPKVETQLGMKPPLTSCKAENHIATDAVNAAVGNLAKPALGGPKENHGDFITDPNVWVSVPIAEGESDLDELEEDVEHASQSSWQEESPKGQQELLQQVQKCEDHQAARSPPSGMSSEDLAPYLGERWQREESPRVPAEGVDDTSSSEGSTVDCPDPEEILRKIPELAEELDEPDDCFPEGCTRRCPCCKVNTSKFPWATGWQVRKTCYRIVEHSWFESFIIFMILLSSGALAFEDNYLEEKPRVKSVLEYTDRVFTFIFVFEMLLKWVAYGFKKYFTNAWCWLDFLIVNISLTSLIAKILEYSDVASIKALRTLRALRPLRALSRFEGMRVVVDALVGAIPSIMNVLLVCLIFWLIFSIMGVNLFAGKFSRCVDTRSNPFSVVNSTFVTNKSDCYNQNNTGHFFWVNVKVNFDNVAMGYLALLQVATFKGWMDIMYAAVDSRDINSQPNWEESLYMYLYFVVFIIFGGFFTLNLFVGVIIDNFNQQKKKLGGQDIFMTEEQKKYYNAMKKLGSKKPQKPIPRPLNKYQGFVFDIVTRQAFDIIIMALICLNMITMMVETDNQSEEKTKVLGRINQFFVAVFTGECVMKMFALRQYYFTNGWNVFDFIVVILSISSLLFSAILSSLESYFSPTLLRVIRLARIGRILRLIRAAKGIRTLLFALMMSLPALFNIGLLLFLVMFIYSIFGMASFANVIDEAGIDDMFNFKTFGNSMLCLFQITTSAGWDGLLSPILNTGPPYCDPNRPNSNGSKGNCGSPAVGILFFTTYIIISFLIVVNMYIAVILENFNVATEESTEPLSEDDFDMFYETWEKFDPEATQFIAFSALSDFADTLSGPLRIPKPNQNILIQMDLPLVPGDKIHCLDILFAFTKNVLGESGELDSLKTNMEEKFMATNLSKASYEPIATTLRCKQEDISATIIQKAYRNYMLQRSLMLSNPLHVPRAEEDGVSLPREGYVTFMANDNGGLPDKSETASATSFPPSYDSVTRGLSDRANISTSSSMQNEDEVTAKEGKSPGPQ
Assay: Inhibition of mouse Nav1.8 with resting membrane potential at half inactivated state by PatchXpress high-throughput electrophysiology method
Endpoint name: IC50 (nM)
The reply should be a number in nM, with the unit left off.

QUERY: Input COc1cc(F)ccc1Oc1cc(C(F)(F)F)ncc1C(=O)Nc1ccnnc1 , output reported IC50.
RESULT: 3100

QUERY: Input Cc1cc(F)ccc1Oc1ncc(C(F)(F)F)cc1C(=O)Nc1cccc([S@](C)(=N)=O)c1 , output reported IC50.
RESULT: 3040

QUERY: Input CS(=N)(=O)c1cccc(NC(=O)c2cc(C(F)(F)F)cnc2Oc2ccc(F)cc2Cl)c1 (centres undefined) , output reported IC50.
RESULT: 660

QUERY: Input O=C(Nc1ccc[n+]([O-])c1)c1cc(C(F)(F)F)cnc1Oc1ccc(F)cc1Cl , output reported IC50.
RESULT: 920

###

Assay: Clearance in rat at 1 mg/kg
Format: ADME, organism-based
Details: in vivo
Endpoint name: clearance (mL/min/kg)
The reply should be a number in mL/min/kg, with the unit left off.

QUERY: Input CS(=N)(=O)c1cccc(NC(=O)c2cc(C(F)(F)F)cnc2Oc2ccc(F)cc2Cl)c1 (stereo not given) , output reported clearance.
RESULT: 5.9

QUERY: Input COc1cc(F)ccc1Oc1cc(C(F)(F)F)ncc1C(=O)Nc1ccnnc1 , output reported clearance.
RESULT: 24

QUERY: Input O=C(Nc1ccc[n+]([O-])c1)c1cc(C(F)(F)F)cnc1Oc1ccc(F)cc1Cl , output reported clearance.
RESULT: 3.3

QUERY: Input COc1cc(F)ccc1Oc1ncc(C(F)(F)F)cc1C(=O)Nc1cccc(S(C)(=O)=O)c1 , output reported clearance.
RESULT: 16

QUERY: Input Cc1cc(F)ccc1Oc1ncc(C(F)(F)F)cc1C(=O)Nc1cccc([S@](C)(=N)=O)c1 , output reported clearance.
RESULT: 6.1

###

Test: Half life in rat
Assay type: ADME
Conditions: in vivo
Endpoint name: half-life (h)
The reply should be a number in h, with the unit left off.

QUERY: Input COc1cc(F)ccc1Oc1ncc(C(F)(F)F)cc1C(=O)Nc1cccc(S(C)(=O)=O)c1 , output reported half-life.
RESULT: 5.6

###

Assay: Oral bioavailability in rat at 10 mg/kg
Format: ADME, organism-based
Conditions: in vivo
Kindly supply the reported bioavailability values for the records listed here.
Could you write the number and then its unit?

QUERY: Input CS(=N)(=O)c1cccc(NC(=O)c2cc(C(F)(F)F)cnc2Oc2ccc(F)cc2Cl)c1 (centres undefined) , output reported bioavailability.
RESULT: 86%

QUERY: Input Cc1cc(F)ccc1Oc1ncc(C(F)(F)F)cc1C(=O)Nc1cccc([S@](C)(=N)=O)c1 , output reported bioavailability.
RESULT: 80%

QUERY: Input COc1cc(F)ccc1Oc1cc(C(F)(F)F)ncc1C(=O)Nc1ccnnc1 , output reported bioavailability.
RESULT: 45%

QUERY: Input COc1cc(F)ccc1Oc1ncc(C(F)(F)F)cc1C(=O)Nc1cccc(S(C)(=O)=O)c1 , output reported bioavailability.
RESULT: 14%

###

Target: Sodium channel protein type 10 subunit alpha (Homo sapiens)
Sequence (Q9Y5Y9 whole entry): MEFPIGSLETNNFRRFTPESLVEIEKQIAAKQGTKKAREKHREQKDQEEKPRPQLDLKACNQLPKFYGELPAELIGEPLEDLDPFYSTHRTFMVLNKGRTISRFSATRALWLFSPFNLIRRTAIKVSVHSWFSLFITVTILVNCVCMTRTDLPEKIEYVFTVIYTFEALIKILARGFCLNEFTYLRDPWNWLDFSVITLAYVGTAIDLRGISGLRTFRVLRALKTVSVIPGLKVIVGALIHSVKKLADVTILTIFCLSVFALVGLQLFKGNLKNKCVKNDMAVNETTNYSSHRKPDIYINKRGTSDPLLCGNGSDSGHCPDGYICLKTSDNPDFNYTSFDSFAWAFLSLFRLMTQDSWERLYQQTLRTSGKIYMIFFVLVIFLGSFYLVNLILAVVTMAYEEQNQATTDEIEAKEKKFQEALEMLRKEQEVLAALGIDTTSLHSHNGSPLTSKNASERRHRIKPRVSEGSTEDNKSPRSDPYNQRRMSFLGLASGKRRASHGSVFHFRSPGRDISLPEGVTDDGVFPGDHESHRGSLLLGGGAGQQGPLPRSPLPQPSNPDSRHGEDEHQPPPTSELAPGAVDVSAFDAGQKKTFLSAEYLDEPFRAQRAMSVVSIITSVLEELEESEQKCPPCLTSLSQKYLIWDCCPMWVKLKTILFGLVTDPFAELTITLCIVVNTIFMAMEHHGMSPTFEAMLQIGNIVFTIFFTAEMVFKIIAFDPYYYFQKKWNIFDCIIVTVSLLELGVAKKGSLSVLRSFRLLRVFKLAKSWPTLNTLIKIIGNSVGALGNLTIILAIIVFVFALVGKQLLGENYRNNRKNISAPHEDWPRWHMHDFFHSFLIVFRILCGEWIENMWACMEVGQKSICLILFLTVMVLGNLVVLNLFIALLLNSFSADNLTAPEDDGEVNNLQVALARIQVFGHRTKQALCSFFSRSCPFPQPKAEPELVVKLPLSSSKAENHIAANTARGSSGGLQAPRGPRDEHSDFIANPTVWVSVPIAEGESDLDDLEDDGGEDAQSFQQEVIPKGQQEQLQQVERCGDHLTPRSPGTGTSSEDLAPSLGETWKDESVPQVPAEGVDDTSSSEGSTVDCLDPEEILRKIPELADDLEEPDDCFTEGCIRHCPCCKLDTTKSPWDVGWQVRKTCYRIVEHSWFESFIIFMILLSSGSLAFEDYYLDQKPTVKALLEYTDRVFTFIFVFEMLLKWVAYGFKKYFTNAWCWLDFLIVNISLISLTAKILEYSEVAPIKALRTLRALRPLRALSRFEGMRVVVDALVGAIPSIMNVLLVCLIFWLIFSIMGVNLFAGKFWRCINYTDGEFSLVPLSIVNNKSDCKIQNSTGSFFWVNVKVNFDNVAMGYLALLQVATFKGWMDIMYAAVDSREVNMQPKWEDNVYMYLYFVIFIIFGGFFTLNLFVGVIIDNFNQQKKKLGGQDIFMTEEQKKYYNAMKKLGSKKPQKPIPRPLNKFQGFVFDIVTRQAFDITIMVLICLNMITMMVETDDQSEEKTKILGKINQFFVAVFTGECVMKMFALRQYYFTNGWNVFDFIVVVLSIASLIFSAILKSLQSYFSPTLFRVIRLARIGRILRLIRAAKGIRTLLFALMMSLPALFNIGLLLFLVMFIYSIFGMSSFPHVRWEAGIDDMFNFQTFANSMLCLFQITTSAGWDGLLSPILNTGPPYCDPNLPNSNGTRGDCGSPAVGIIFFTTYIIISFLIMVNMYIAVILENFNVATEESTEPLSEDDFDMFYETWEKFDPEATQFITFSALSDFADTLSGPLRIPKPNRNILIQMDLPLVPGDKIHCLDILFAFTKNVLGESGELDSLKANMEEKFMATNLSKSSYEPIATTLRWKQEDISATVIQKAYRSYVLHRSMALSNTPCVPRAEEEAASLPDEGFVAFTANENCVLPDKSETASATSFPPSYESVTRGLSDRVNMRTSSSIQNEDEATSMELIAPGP
Test: Inhibition of human Nav1.8 with resting membrane potential at half inactivated state by PatchXpress high-throughput electrophysiology method
Kindly supply the reported IC50 values for the records listed here.

QUERY: Jot down IC50 (Sodium channel protein type 10 subunit alpha (Homo sapiens)) of COc1cc(F)ccc1Oc1ccncc1C(=O)Nc1cccc(S(C)(=O)=O)c1 .
RESULT: > 10000 nM

QUERY: Jot down IC50 (Sodium channel protein type 10 subunit alpha (Homo sapiens)) of COc1cc(F)ccc1Oc1nc2ccccc2nc1C(=O)Nc1cccc(S(C)(=O)=O)c1 .
RESULT: 36 nM

QUERY: Jot down IC50 (Sodium channel protein type 10 subunit alpha (Homo sapiens)) of COc1cc(F)ccc1Oc1cc(C(F)(F)F)ncc1C(=O)Nc1cccc(S(C)(=O)=O)c1 .
RESULT: 32 nM

QUERY: Jot down IC50 (Sodium channel protein type 10 subunit alpha (Homo sapiens)) of CN=S(C)(=O)c1cccc(NC(=O)c2cc(C(F)(F)F)cnc2Oc2ccc(F)cc2OC)c1 (stereo not given) .
RESULT: 68 nM

QUERY: Jot down IC50 (Sodium channel protein type 10 subunit alpha (Homo sapiens)) of CS(=O)(=O)c1cccc(NC(=O)c2cc(C(F)(F)F)cnc2Oc2ccc(OC(F)(F)F)cc2Cl)c1 .
RESULT: 15 nM
